# assay-remarks: Tmax in Swiss Webster mouse at 10 mg/kg, iv
# Type: ADME, organism-based
# Design: dose 10 mg/kg, route intravenous
# measurement-parameters: in vivo
endpoint-label: Tmax (min)
Your answer is read as min, so omit the unit and give the number.

Per the records, this compound ( "CC1(C)CC(=O)c2c(C(F)(F)F)nn(-c3ccc(C(N)=O)c(N[C@H]4CC[C@H](OC(=O)CN)CC4)c3)c2C1.CS(=O)(=O)O" ) has Tmax equal to 4.98

###

# Test system: SW-620
# assay-remarks: Antiproliferative activity against human SW620 cells after 72 to 144 hrs by cyquant DNA dye method
# Format: functional, cell-based
Overview of recorded pIC50 for various molecules
pIC50 is defined as minus the log10 of a concentration measured in mol/L.

[
  {
    "smiles-entry": "Cc1cn(-c2ccc(C(N)=O)c(N[C@H]3CC[C@H](O)CC3)c2)c2c1C(=O)CC(C)(C)C2",
    "pIC50": 8.22
  },
  {
    "smiles-entry": "CC1(C)CC(=O)c2c(C(F)(F)F)nn(-c3ccc(C(N)=O)c(N[C@H]4CC[C@H](O)CC4)c3)c2C1",
    "pIC50": 8.52
  },
  {
    "smiles-entry": "CC1(C)CC(=O)c2c(C(F)(F)F)nn(-c3ccc(C(N)=O)c(N[C@H]4CC[C@H](OC(=O)CN)CC4)c3)c2C1.CS(=O)(=O)O",
    "pIC50": 7.72
  }
]

Moving on to the next molecule.
Simply: "C=CCNC1=C2C[C@@H](C)C[C@H](OC)[C@H](O)[C@@H](C)/C=C(\C)[C@H](OC(N)=O)[C@@H](OC)/C=C\C=C(/C)C(=O)NC(=CC1=O)C2=O" , SW-620, pIC50 = 6.48
